B1: HSP90AB1 (parent)
chain: EADKNDKAVKDLVVLLFETALLSS

# Variants of: B1
# EXPERIMENTAL_PROTOCOL: protein stability index of a GFP-peptide fusion (GPS, HEK-293T) (PSI 1-6); higher = more stable;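 also: lentivirally expressed fusions sorted by FACS into six bins by GFP to DsRed ratio, PSI derived from sequencing read proportions per bin multiplied by bin number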
# PARTICULARS: c terminus: a fixed tail appended
Everything with protein stability index lower than 2 is NOT MET; everything else, including exactly 2, is MET.

CHAIN	GROUP_LABEL
EADKNDKAVKDLVVLLFEFALLSS [T19F]	MET
EADKNDKAVKFLVVLLFETALLSS [D11F]	MET
EADKNDLAVKDLVVLLFETALLSS [K7L]	MET
EADKNDKLVKDLVVLLFETALLSS [A8L]	MET
EADKNDKAVKDLVVLDFETALLSS [L16D]	MET
EADKNDKTVKDLVVLLFETALLSS [A8T]	NOT MET
EADKNDKAVKCLVVLLFETALLSS [D11C]	MET
EADKNDKAVKDLAVLLFETALLSS [V13A]	MET
EQDKNDKAVKDLVVLLFETALLSS [A2Q]	NOT MET
EADKNDKAVKDLVVELFETALLSS [L15E]	MET
